- TEST TARGET: UniProtKB P30551
- Sequence (P30551 whole entry): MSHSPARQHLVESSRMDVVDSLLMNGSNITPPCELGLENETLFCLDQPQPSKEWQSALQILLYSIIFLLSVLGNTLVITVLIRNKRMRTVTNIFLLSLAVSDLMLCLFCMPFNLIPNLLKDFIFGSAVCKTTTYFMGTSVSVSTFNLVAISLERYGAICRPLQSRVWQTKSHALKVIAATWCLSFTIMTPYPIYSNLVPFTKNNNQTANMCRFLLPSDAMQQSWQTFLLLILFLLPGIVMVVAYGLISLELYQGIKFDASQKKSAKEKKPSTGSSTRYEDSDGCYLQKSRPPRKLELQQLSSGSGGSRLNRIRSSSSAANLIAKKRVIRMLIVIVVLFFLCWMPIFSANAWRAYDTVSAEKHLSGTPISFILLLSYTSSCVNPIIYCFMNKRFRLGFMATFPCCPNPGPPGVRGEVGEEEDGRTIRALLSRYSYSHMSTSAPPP
- ASSAY DETAILS: Displacement of [125I]-CCK8 from CCK1 receptor in rat pancreatic acinar cells
In this section we review reported IC50 values for a set of molecules.
MEASURE: IC50 (µM)

> print(dat)
                                   molecule  measure  recorded.number
1  O=C(Nc1ccccc1C(=O)NC(Cc1ccccc1)C(=O)O)c1cc2cccc(C(F)(F)F)c2[nH]1 (racemic)     IC50            0.538
2  O=C(Nc1ccccc1C(=O)N[C@H](Cc1ccccc1)C(=O)O)c1cc2ccccc2[nH]1     IC50            0.106
3  O=C(Nc1ccccc1C(=O)N[C@@H](Cc1ccccc1)C(=O)O)c1cc2ccccc2[nH]1     IC50             10.2
4  O=C(Nc1ccccc1C(=O)NC(Cc1ccccc1)C(=O)O)C1=CC2CCCC2N1 (racemic)     IC50             13.1
5  O=C(Nc1ccccc1C(=O)N[C@H](Cc1ccccc1)C(=O)O)c1cc2cc(F)ccc2[nH]1     IC50            0.151
6  O=C(Nc1ccccc1C(=O)N[C@@H](Cc1ccccc1)C(=O)O)c1cc2cc(F)ccc2[nH]1     IC50             30.1
7  O=C(Nc1ccccc1C(=O)NC(Cc1ccccc1)C(=O)O)c1cc2c(F)cccc2[nH]1 (racemic)     IC50            0.937
8  O=C(Nc1ccccc1C(=O)NC(Cc1ccccc1)C(=O)O)c1cc2cccc(F)c2[nH]1 (racemic)     IC50            0.159

Each recorded value in this set is attributed to ChEMBL document CHEMBL1154080.
